B1: TPR t1 (parent)
chain: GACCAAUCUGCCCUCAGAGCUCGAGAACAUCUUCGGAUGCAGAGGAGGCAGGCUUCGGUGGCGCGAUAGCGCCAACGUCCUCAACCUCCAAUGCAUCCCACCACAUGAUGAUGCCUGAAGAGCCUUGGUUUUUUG

Variants of: B1
Test: polymerase ribozyme fitness, log enrichment relative to wild type (log ratio); higher = more active; in vitro selection for triplet polymerase activity
QUANTITY_KIND: polymerase ribozyme fitness (log ratio)
// no unit, no text: just the number

Recorded polymerase ribozyme fitness (log ratio), per entry:
mutant_code="G51A C72G C79U" meas_value=-3.08
mutant_code="U59C A103U U112C G128U U132A U133A" meas_value=-5.05
mutant_code="C49G C53A C64U" meas_value=-0.365

We now examine a further variant.
**Query** For the variant shown here, C56G C73U , give the reported polymerase ribozyme fitness (log ratio).
**Result** -0.89
